Target: Thrombin (Homo sapiens)
Construct: Thrombin; MPBio; 19491880; purchased MPBio 19491880
Assay: Serine protease inhibition: thrombin
Format: biochemical, mammalian
Protocol: The effect of selected BLIs on the enzymatic activity of some common mammalian serine proteases was evaluated. 50 μl of the diluted enzyme was mixed with 50 μl of inhibitor at various concentrations and 50 μl of corresponding buffer (Table 7). […] Subsequently, 50 μl of corresponding substrate (Table 7) was added and absorbance or fluorescence was monitored for 30 min on SpectraMax M2 plate reader (Molecular Devices). […] Rates of reaction were calculated and presented relative to “no treatment” control.
Counter-ions that a name gives are not always drawn.
experimental endpoint: IC50 (µM)
// note: answer is a bare numeric in µM

Request: Value lookup for IC50; key = NCCc1ccc(S(=O)(=O)F)cc1 [AEBSF, hydrochloride, reference compound]
Response: 100

* * *

pIC50: −log10 of the molar value.
The next entries give measured pIC50 for CathepsinG (Homo sapiens).

Reference set, count: 4
compound	pIC50
Nc1nnc(SCC(=O)N[C@H]2Cc3cccc(C(=O)O)c3OB2O)s1	> 4.82
O=C(N[C@H]1Cc2cccc(C(=O)O)c2OB1O)c1cncc(F)c1	3.30 to 4.82
O=C(COCc1ccccc1)N[C@H]1Cc2cccc(C(=O)O)c2OB1O [CPD B, reference compound]	3.30 to 4.82
O=C(N[C@H]1Cc2cccc(C(=O)O)c2OB1O)c1cccnc1	> 4.82

Request: Give pIC50 (CathepsinG (Homo sapiens)) of the following compound: "O=C(CSC(F)F)N[C@H]1Cc2cccc(C(=O)O)c2OB1O"
Response: > 4.82

* * *

target: CathepsinA (Homo sapiens); construct: purchased R&D Systems 1049-SE; assay: Serine protease inhibition: cathepsin A; type: biochemical, mammalian
Sequence (P10619 29-480): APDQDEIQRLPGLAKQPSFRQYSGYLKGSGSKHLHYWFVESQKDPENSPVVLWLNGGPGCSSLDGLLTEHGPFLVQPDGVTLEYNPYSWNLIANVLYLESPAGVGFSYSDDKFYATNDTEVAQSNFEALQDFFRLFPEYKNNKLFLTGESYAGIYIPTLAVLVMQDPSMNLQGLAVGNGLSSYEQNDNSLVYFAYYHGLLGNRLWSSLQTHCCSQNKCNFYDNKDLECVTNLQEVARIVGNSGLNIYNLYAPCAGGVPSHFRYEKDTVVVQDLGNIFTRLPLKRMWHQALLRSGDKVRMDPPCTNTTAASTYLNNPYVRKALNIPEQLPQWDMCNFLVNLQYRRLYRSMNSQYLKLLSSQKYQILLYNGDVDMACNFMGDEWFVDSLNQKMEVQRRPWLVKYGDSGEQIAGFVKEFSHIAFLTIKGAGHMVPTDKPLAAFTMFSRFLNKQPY
experimental endpoint: IC50

Request: Value lookup for IC50; key = CC(=O)N[C@@H](CC(C)C)C(=O)N[C@@H](CC(C)C)C(=O)N[C@H](C=O)CCCNC(=N)N [Leupeptin, leupeptin, reference compound]
Response: 15 to 500 µM

* * *

molecular target: Neutrophil elastase (Homo sapiens); construct: purchased Calbiochem 324681; test: Serine protease inhibition: neutrophil elastase; assay type: biochemical, mammalian; conditions: Table 8B; read-out: IC50 Neutrophil elastase
Sequence (P08246 30-267): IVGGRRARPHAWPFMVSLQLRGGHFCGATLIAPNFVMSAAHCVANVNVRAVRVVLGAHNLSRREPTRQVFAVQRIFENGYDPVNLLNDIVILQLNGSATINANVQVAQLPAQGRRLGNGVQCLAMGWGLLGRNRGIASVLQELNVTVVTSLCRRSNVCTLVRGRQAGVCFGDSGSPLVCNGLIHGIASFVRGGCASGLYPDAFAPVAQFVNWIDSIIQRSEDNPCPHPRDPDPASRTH
pIC50: −log10 of the molar value.
experimental endpoint: pIC50

Request: Value lookup for pIC50; key = O=C(CSC(F)F)N[C@H]1Cc2cccc(C(=O)O)c2OB1O [Compound 3]
Response: 3.30 to 4.82

Request: Value lookup for pIC50; key = CC(=O)N[C@@H](CC(C)C)C(=O)N[C@@H](CC(C)C)C(=O)N[C@H](C=O)CCCNC(=N)N [Leupeptin, leupeptin, reference compound]
Response: 3.30 to 4.82

Request: Value lookup for pIC50; key = [N-]=[N+]=NCC(=O)N[C@H]1Cc2cccc(C(=O)O)c2OB1O [Compound 8]
Response: < 3.30

Request: Value lookup for pIC50; key = CSC(=O)N[C@H]1Cc2cccc(C(=O)O)c2OB1O [Compound 11]
Response: < 3.30

Request: Value lookup for pIC50; key = O=C(Cc1cccs1)N[C@H]1Cc2cccc(C(=O)O)c2OB1O [CPD A, reference compound]
Response: 3.30 to 4.82

Request: Value lookup for pIC50; key = Nc1nnc(SCC(=O)N[C@H]2Cc3cccc(C(=O)O)c3OB2O)s1 [Compound 5]
Response: < 3.30

Request: Value lookup for pIC50; key = O=C(COCc1ccccc1)N[C@H]1Cc2cccc(C(=O)O)c2OB1O [CPD B, reference compound]
Response: < 3.30

Request: Value lookup for pIC50; key = O=CN[C@H]1Cc2cccc(C(=O)O)c2OB1O [Compound 4]
Response: < 3.30

Request: Value lookup for pIC50; key = O=C(CSc1nncs1)N[C@H]1Cc2cccc(C(=O)O)c2OB1O [Compound 7]
Response: < 3.30
